- Organism: Rattus norvegicus
- Assay remarks: Open TG-GATES - Regimen: Single
- Type: toxicity, organism-based, Sprague-Dawley
- Set-up: regimen Single, gender Male, age 6 weeks
- Condition info: in vivo, po, 100 mg/kg, 6 h, tissue Plasma, route gavage, dose level Low
Below, each entry is listed with its recorded CRE.
Kindly provide the numeric value in mg/dL only, without the unit symbol.

| Compound | CRE / mg/dL |
| --- | --- |
| Clc1ccccc1CN1CCc2sccc2C1 [TICLOPIDINE] | 0.4 |
| CCc1cc(C(N)=S)ccn1 [ETHIONAMIDE] | 0.5 |
| C[C@H](CS)C(=O)N1CCC[C@H]1C(=O)O [CAPTOPRIL] | 0.6 |
| O=C(O)c1cc(/N=N/c2ccc(S(=O)(=O)Nc3ccccn3)cc2)ccc1O [SULFASALAZINE] | 0.4 |

Query compound follows.
Kindly note the recorded CRE for O=C(O)c1cn(C2CC2)c2cc(N3CCNCC3)c(F)cc2c1=O [CIPROFLOXACIN] , which is 0.5

* * *

- Species: Rattus norvegicus
- Assay remarks: Open TG-GATES - Regimen: Single
- Type: toxicity, organism-based, Sprague-Dawley
- Parameters: regimen Single, gender Male, age 6 weeks
- Condition info: in vivo, po, 0 mg/kg, 6 h, tissue Plasma, route gavage, dose level Control
Outcome measure: PL

Kindly note the recorded PL for CC(=O)Oc1ccccc1C(=O)O [ASPIRIN] , which is 139.2 mg/dL

Kindly note the recorded PL for NC(=O)N1c2ccccc2C=Cc2ccccc21 [CARBAMAZEPINE] , which is 133.4 mg/dL

* * *

- Organism: Rattus norvegicus
- Assay remarks: Open TG-GATES - Regimen: Single
- Assay type: toxicity, organism-based, Sprague-Dawley
- Set-up: regimen Single, gender Male, age 6 weeks
- Condition info: in vivo, po, 100 mg/kg, 6 h, tissue Plasma, route gavage, dose level Low
Outcome measure: K (meq/L)
Kindly provide the numeric value in meq/L only, without the unit symbol.

Kindly note the recorded K for "C[C@H](CS)C(=O)N1CCC[C@H]1C(=O)O" , which is 4.9

Kindly note the recorded K for "O=C(O)c1cc(/N=N/c2ccc(S(=O)(=O)Nc3ccccn3)cc2)ccc1O" , which is 3.9

Kindly note the recorded K for CCc1cc(C(N)=S)ccn1 [ETHIONAMIDE] , which is 4.5

Kindly note the recorded K for "O=C(O)c1cn(C2CC2)c2cc(N3CCNCC3)c(F)cc2c1=O" , which is 5.4

Kindly note the recorded K for "Clc1ccccc1CN1CCc2sccc2C1" , which is 3.9

* * *

- Species on record: Rattus norvegicus
- Assay remarks: Open TG-GATES - Regimen: Daily Repeat
- Assay type: toxicity, organism-based, Sprague-Dawley
- Parameters: regimen Daily Repeat, gender Male, age 6 weeks
- Condition info: in vivo, po, 0 mg/kg, […], tissue Kidney, route gavage, dose level Control, time 28 day
Below, each entry is listed with its recorded KIDNEY_TOTAL.
Kindly provide the numeric value in g only, without the unit symbol.

Consider the worked cases shown below.
| Molecule | Units of measure | Assay result |
| --- | --- | --- |
| C[C@H](CS)C(=O)N1CCC[C@H]1C(=O)O | g | 2.9 |
| NC(=O)N1c2ccccc2C=Cc2ccccc21 [CARBAMAZEPINE] | g | 2.8 |
| O=C(O)c1cc(/N=N/c2ccc(S(=O)(=O)Nc3ccccn3)cc2)ccc1O | g | 2.5 |
| CSc1ccc2c(c1)N(CCC1CCCCN1C)c1ccccc1S2 (stereo not given) | g | 2.9 |

Query molecule follows.
Kindly note the recorded KIDNEY_TOTAL for "CC(=O)Oc1ccccc1C(=O)O" , which is 2.8
